The reported numbers originate from patent US20240262842A1.

Give measured pIC50 for each item. Keep answers brief.
systemTested: interaction between GMPPNP-bound recombinant K-Ras4B G12C mutant protein and cRAF RAS-binding domain (cRAF-RBD) (Homo sapiens, UniProt P01116, G12C)
Construct: His-tag (N)
Sequence (P01116 with tags, fused parts or gaps isoform P01116-2 G12C): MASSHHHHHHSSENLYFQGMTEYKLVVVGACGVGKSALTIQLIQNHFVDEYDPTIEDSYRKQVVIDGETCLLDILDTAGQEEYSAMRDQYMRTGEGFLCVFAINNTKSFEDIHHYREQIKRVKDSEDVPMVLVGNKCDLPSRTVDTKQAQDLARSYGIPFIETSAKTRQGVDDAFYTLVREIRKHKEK
assayProtocol: Inhibitory activity on interaction between KRAS G12C and cRAF (Alpha technology)
conditions: GMPPNP-bound KRAS G12C incubated with compound 25° C. 1 hour; Table 2-1; read-out: IC50
Numbers only, as −log10 of the molar value.

Cc1nc2c3c(c(C(F)(F)F)cc2n1C)-c1cccn2c(C(=O)c4cc(F)c(NC(=O)/C=C/CNC5(C)CCOC5)c(F)c4)cc(c12)CCO3 (single isomer, unassigned) = 8.34
Cn1cnc2c3c(c(C(F)(F)F)cc21)-c1cccn2c(C(=O)c4cc(F)c(NC(=O)/C=C/CN5C[C@H]6COC[C@H]6C5)c(F)c4)cc(c12)CCO3 = 7.21
COCCn1cnc2c3c(c(C(F)(F)F)cc21)-c1cccn2c(C(=O)c4cc(F)c(NC(=O)/C=C/CNC5(C)COC5)c(F)c4)cc(c12)CCN3C (single isomer, unassigned) = 7.49
Cn1cnc2c3c(c(C(F)(F)F)cc21)-c1cccn2c(C(=O)c4cc(F)c(NC(=O)/C=C/CN5CC6CCC5C6)c(F)c4)cc(c12)CCO3 (centres unmarked) = 7.69

// moving on: another record for pIC50
q: Suppose we examine the compound COC[C@H](CO)NC/C=C/C(=O)Nc1c(F)cc(C(=O)c2cc3c4c(cccn24)-c2c(C(F)(F)F)cc4c(ncn4C)c2N(C)CC3)cc1F ; what pIC50 value has been reported?
a: 7.73

* * *

systemTested: interaction between GMPPNP-bound recombinant K-Ras4B G12C mutant protein and cRAF RAS-binding domain (cRAF-RBD) (Homo sapiens, UniProt P01116, G12C)
Construct: His-tag (N)
assayProtocol: Inhibitory activity on interaction between KRAS G12C and cRAF (Alpha technology)
conditions: IC50, GMPPNP-bound KRAS G12C incubated with compound 25° C. 1 hour; Table 2
quantityKind: IC50 (nM)
Numbers only, in nM.

CO[C@H]1CC[C@H](NC/C=C/C(=O)Nc2c(F)cc(C(=O)c3cn4c5c(cccc35)-c3c(C)cc5c(nc(C)n5C)c3OC[C@H]4C)cc2F)CC1 [Example 17] = 1300
CO[C@H]1CC[C@H](NC/C=C/C(=O)Nc2c(F)cc(C(=O)c3cn4c5c(cccc35)-c3c(C(F)(F)F)cc5c(nc(C)n5C)c3N(C)CC4)cc2F)CC1 [Example 45] = 21
CC(C)(C)NC/C=C/C(=O)Nc1c(F)cc(C(=O)c2cn3c4c(cccc24)-c2c(Cl)cccc2OCCC3)cc1F (single isomer, unassigned) [Example 2-2] = 500

We next turn to a different compound, shown below.
q: Quick one: IC50 for CO[C@H]1CC[C@H](NC/C=C/C(=O)Nc2c(F)cc(C(=O)c3cn4c5c(cccc35)-c3c(F)cccc3OCC4)cc2F)CC1 [Example 7] ?
a: 840

* * *

System: MIA PaCa-2 cells
assayProtocol: Growth inhibition activity on KRAS-G12C mutant cell line (CellTiter-Glo 3D)
Format: cell-based, human
conditions: Homo sapiens, MIA PaCa-2, 72 h, MIA PaCa-2, 3-day culture with compound; Table 3-1
quantityKind: IC50
Answer format: value, then unit.

COc1cc2c(nc(C)n2C)c2c1-c1cccn3c(C(=O)c4cc(F)c(NC(=O)/C=C/CNC5(C)CC5)c(F)c4)cc(c13)CCO2 = 6.38 nM

Hey, can you go through the list below and give me IC50 for every item?
1. COCCn1cnc2c3c(c(OC)cc21)-c1cccn2c(C(=O)c4cc(F)c(NC(=O)/C=C/CNC5(C)CC5)c(F)c4)cc(c12)CCN3C (single isomer, unassigned)
2. Cn1cnc2c3c(c(C(F)(F)F)cc21)-c1cccn2c(C(=O)c4cc(F)c(NC(=O)/C=C/CNC56CCC(CC5)OC6)c(F)c4)cc(c12)CCO3

a:
1: 10.2 nM; 2: 9.06 nM

* * *

systemTested: interaction between GMPPNP-bound recombinant K-Ras4B G12C mutant protein and cRAF RAS-binding domain (cRAF-RBD) (Homo sapiens, UniProt P01116, G12C)
Construct: His-tag (N)
assayProtocol: Inhibitory activity on interaction between KRAS G12C and cRAF (Alpha technology)
conditions: GMPPNP-bound KRAS G12C incubated with compound 25° C. 1 hour; Table 2-1; read-out: IC50
quantityKind: pIC50
Give bare numbers, as −log10 of the molar value.

Cn1cnc2c3c(c(C(F)(F)F)cc21)-c1cccn2c(C(=O)c4cc(F)c(NC(=O)/C=C/CN5CCC[C@](C)(O)C5)c(F)c4)cc(c12)CCO3 = 7.45
CO[C@H]1CC[C@H](NC/C=C/C(=O)Nc2ccc(C(=O)c3cn4c5c(cccc35)-c3c(C(F)(F)F)cc5c(nc(C)n5C)c3N(C)CC4)nc2)CC1 = 7.40
CN1CCc2cc(C(=O)c3cc(F)c(NC(=O)/C=C/CNCC(C)(C)CO)c(F)c3)n3cccc(c23)-c2c(C(F)(F)F)cc3c(ncn3C)c21 = 7.53

Take each entry in turn and give its pIC50.
1. Cc1c2c3c(cccn3c1C(=O)c1cc(F)c(NC(=O)/C=C/CNC3(C)COC3)c(F)c1)-c1c(C(F)(F)F)cc3c(nc(C)n3C)c1OCC2
2. COCc1nc2c3c(c(C(F)(F)F)cc2n1C)-c1cccn2c(C(=O)c4cc(F)c(NC(=O)/C=C/CNC5(C)COC5)c(F)c4)cc(c12)CCN3C (single isomer, unassigned)
3. CC(O)[C@]1(C)CCCN1C/C=C/C(=O)Nc1c(F)cc(C(=O)c2cc3c4c(cccn24)-c2c(C(F)(F)F)cc4c(ncn4C)c2N(C)CC3)cc1F (single isomer, unassigned) [Example 205]
4. Cc1cnc2c3c(c(C(F)(F)F)cn12)-c1cccn2c(C(=O)c4cc(F)c(NC(=O)/C=C/CNC5(C)COC5)c(F)c4)cc(c12)CCN3C
5. COCC1(NC/C=C/C(=O)Nc2c(F)cc(C(=O)c3cc4c5c(cccn35)-c3c(C(F)(F)F)cc5c(ncn5C)c3N(C)CC4)cc2F)CCCC1
6. Cn1cnc2c3c(c(C(F)(F)F)cc21)-c1cccn2c(C(=O)c4cc(F)c(NC(=O)/C=C/CN5C[C@@H]6COC[C@H]6C5)c(F)c4)cc(c12)CCO3 (racemic)
7. COc1cc2c(nc(C)n2C)c2c1-c1cccn3c(C(=O)c4cc(F)c(NC(=O)/C=C/CNC5(C)CCCC5)c(F)c4)cc(c13)CCN2C
8. Cn1cnc2c3c(c(C(F)(F)F)cc21)-c1cccn2c(C(=O)c4cc(F)c(NC(=O)/C=C/CN5C[C@@H]6C[C@H]5CO6)c(F)c4)cc(c12)CCO3

a:
1: 7.11; 2: 7.70; 3: 7.53; 4: 7.44; 5: 7.77; 6: 7.74; 7: 7.48; 8: 7.82

* * *

Hi there, I'd appreciate the recorded pIC50 for every entry that follows.
systemTested: interaction between GMPPNP-bound recombinant K-Ras4B G12C mutant protein and cRAF RAS-binding domain (cRAF-RBD) (Homo sapiens, UniProt P01116, G12C)
Construct: His-tag (N)
assayProtocol: Inhibitory activity on interaction between KRAS G12C and cRAF (Alpha technology)
conditions: GMPPNP-bound KRAS G12C incubated with compound 25° C. 1 hour; Table 2-1; read-out: IC50
Give bare numbers, as −log10 of the molar value.

Observe how each entry below is paired with its result.
COCc1nc2c3c(c(OC)cc2n1C)-c1cccn2c(C(=O)c4cc(F)c(NC(=O)/C=C/CNC5(C)CC5)c(F)c4)cc(c12)CCN3C = 8.13
Cn1cnc2c3c(c(C(F)(F)F)cc21)-c1cccn2c(C(=O)c4cc(F)c(NC(=O)/C=C/CN5CCC5)c(F)c4)cc(c12)CCO3 = 7.20
COCCn1c(COC)nc2c3c(c(OC)cc21)-c1cccn2c(C(=O)c4cc(F)c(NC(=O)/C=C/CN[C@H]5CCOC5)c(F)c4)cc(c12)CCN3C (single isomer, unassigned) = 7.63
CN1CCc2cc(C(=O)c3cc(F)c(NC(=O)/C=C/CN[C@H]4CCOC4)c(F)c3)n3cccc(c23)-c2c(C(F)(F)F)cc3[nH]cnc3c21 (atropisomer, axis not shown) = 7.57

q: Which measured pIC50 value corresponds to COCCn1c(C)nc2c3c(c(OC)cc21)-c1cccn2c(C(=O)c4cc(F)c(NC(=O)/C=C/CN[C@H]5CCOC5)c(F)c4)cc(c12)CCN3C (single isomer, unassigned) ?
a: 7.76

* * *

System: MIA PaCa-2 cells
assayProtocol: Growth inhibition activity on KRAS-G12C mutant cell line (CellTiter-Glo 3D)
Type: cell-based, human
conditions: Homo sapiens, MIA PaCa-2, 72 h, MIA PaCa-2, 3-day culture with compound; Table 3-1
quantityKind: IC50 (µM)
Numbers only, in µM.

Solved cases below.
Cn1cnc2c3c(c(C(F)(F)F)cc21)-c1cccc2c(C(=O)c4cc(F)c(NC(=O)/C=C/CNC5(C)COC5)c(F)c4)cn(c12)CCO3 [Example 80] = 0.0222
Cn1cnc2c3c(c(C(F)(F)F)cc21)-c1cccn2c(C(=O)c4cc(F)c(NC(=O)/C=C/CN5CCCC5)c(F)c4)cc(c12)CCO3 [Example 149] = 0.0234
Cn1cnc2c3c(c(C(F)(F)F)cc21)-c1cccn2c(C(=O)c4cc(F)c(NC(=O)/C=C/CN5[C@@H]6CC[C@H]5[C@H](O)C6)c(F)c4)cc(c12)CCO3 (racemic) [Example 173] = 0.0106
CC1(NC/C=C/C(=O)Nc2c(F)cc(C(=O)c3cc4c5c(cccn35)-c3c(cc(N5CCCC5=O)cc3C(F)(F)F)OCC4)cc2F)COC1 (single isomer, unassigned) [Example 183] = 0.112
COCCn1c(C)nc2c3c(c(OC)cc21)-c1cccn2c(C(=O)c4cc(F)c(NC(=O)C=CCNC5(C)CC5)c(F)c4)cc(c12)CCS3 [Example 240] = 0.0145
CN1CCc2cc(C(=O)c3cc(F)c(NC(=O)/C=C/CN4CCC[C@H]4CO)c(F)c3)n3cccc(c23)-c2c(C(F)(F)F)cc3c(ncn3C)c21 [Example 227] = 0.0102
Cn1cnc2c3c(c(C(F)(F)F)cc21)-c1cccn2c(C(=O)c4cc(F)c(NC(=O)/C=C/CN5CC6COC(C6)C5)c(F)c4)cc(c12)CCO3 (stereo not shown) [Example 228] = 0.0358
C[C@H](O)[C@@H]1CCCN1C/C=C/C(=O)Nc1c(F)cc(C(=O)c2cc3c4c(cccn24)-c2c(C(F)(F)F)cc4c(ncn4C)c2N(C)CC3)cc1F [Example 219] = 0.0126
COc1cc2c(nc(C)n2C)c2c1-c1cccn3c(C(=O)c4cc(F)c(NC(=O)/C=C/CNC56CCC(CC5)OC6)c(F)c4)cc(c13)CCN2C [Example 121] = 0.0264

Please look at the following molecule next.
q: Hi! What's the reported IC50 for COCc1nc2c3c(c(OC)cc2n1C)-c1cccn2c(C(=O)c4cc(F)c(NC(=O)/C=C/CN[C@H]5CCOC5)c(F)c4)cc(c12)CCN3C (single isomer, unassigned) [Example 171] on MIA PaCa-2 cells?
a: 0.0135
